Tested on: NCI/ADR-RES
Experiment: NCI tumour cell line growth inhibition, 48 h
Calls of active or inactive are those of the source. No stated cut-off is given here; in the data, active = GI50 up to about 1.1 µM and inactive = higher.
Recorded GI50, one value per entry.

{"compound": "CC(C)CC1c2[nH]c3ccccc3c2C[C@H]2C(=O)NC(Cc3c[nH]c4ccccc34)C(=O)N12 (some centres undefined)", "result": "18 µM (inactive)"}
{"compound": "CCOc1cc2c(cc1O)C(N)C[C@@H]1[C@@H]2CC[C@]2(C)[C@@H](O)CC[C@@H]12 (some centres undefined)", "result": "> 100 µM (inactive)"}
{"compound": "C=C1CN(C2=NCCO2)C1", "result": "> 100 µM (inactive)"}
{"compound": "CCOC(=O)Nc1ccc(S(=O)(=O)Nc2ccc(Br)cc2)cc1", "result": "34.4 µM (inactive)"}
{"compound": "CC(=O)O[C@H]1C(=O)[C@@]2(C)[C@H]([C@H](OC(=O)c3ccc([N+](=O)[O-])cc3)[C@]3(O)C[C@H](OC(=O)[C@H](O)[C@@H](NC(=O)c4ccccc4)c4ccccc4)C(C)=C1C3(C)C)[C@]1(OC(C)=O)CO[C@@H]1C[C@@H]2O", "result": "> 25 µM (inactive)"}
{"compound": "N#C/C(=C\\c1cc(Br)c(O)c(Br)c1)c1cccnc1", "result": "24 µM (inactive)"}

Query: Would you kindly share the measured GI50 for O=S(=O)(O)SCCNCCCCCC1CCCCC1 ?
Reply: 16.7 µM (inactive)

Query: Entry Cc1c2ccccc2nc2[nH]c3ccncc3c12 has what GI50?
Reply: 23.9 µM (inactive)

Query: Report GI50 for CCOC(=O)c1sc2nc(SC)nc3c2c1NCN3C1CC1 please.
Reply: > 100 µM (inactive)

###

Test system: IGROV-1
Assay: NCI tumour cell line growth inhibition, 48 h
The source made the active and inactive calls. No stated cut-off is given here; in the data, active = GI50 up to about 1.1 µM and inactive = higher.
measured.metric: GI50

{"sample.smiles": "CN(c1ccccc1)S(=O)(=O)c1ccccc1[N+](=O)[O-]", "result": "> 100 µM (inactive)"}

Query: Returns the measured GI50 for the input compound. Input: Cc1ncc([N+](=O)[O-])n1CCNS(=O)(=O)CCCn1ncnc1[N+](=O)[O-]
Reply: > 100 µM (inactive)

Query: What value of GI50 has been reported for the following compound? CC(C)C(OC(=O)c1cc(NC(=S)c2ccccc2)ccc1Cl)C(C)C
Reply: 33 µM (inactive)

###

Tested on: K562
Experiment: NCI tumour cell line growth inhibition, 48 h
Active and inactive are the calls of the source. No stated cut-off is given here; in the data, active = GI50 up to about 1.1 µM and inactive = higher.
I would appreciate it if you answered using one of these outcomes: T (active), F (inactive)

Query: // return assay outcome for CN(C(=O)c1cc2c(s1)sc1c(=O)n(C)c3ccccc3c12)c1ccccc1
Reply: F

###

Listed here are compounds together with their documented GI50.
Test system: SK-MEL-28
Assay: NCI tumour cell line growth inhibition, 48 h
The source made the active and inactive calls. Rule as the data show it: active = GI50 up to about 1.1 µM and inactive = higher.

Some compounds with known GI50 results, for comparison:
{"compound": "Oc1cccc2c(Cl)ccnc12", "GI50": "7.69 µM (inactive)"}
{"compound": "CC(=O)O[C@H]1C(=O)[C@@]2(C)[C@H]([C@H](OC(=O)c3ccc([N+](=O)[O-])cc3)[C@]3(O)C[C@H](OC(=O)[C@H](O)[C@@H](NC(=O)c4ccccc4)c4ccccc4)C(C)=C1C3(C)C)[C@]1(OC(C)=O)CO[C@@H]1C[C@@H]2O", "GI50": "> 25 µM (inactive)"}
{"compound": "CCCCCCNC(=O)CCN(C(=O)O)S(=O)(=O)c1ccc(NC(=O)c2ccccc2)cc1", "GI50": "> 100 µM (inactive)"}
{"compound": "O=C1c2ccccc2S(=O)(=O)c2cc(-c3nn[nH]n3)ccc21 [DOXANTRAZOLE]", "GI50": "> 100 µM (inactive)"}
{"compound": "Cc1c2c(C#N)nccc2c(C)c2c1c1ccccc1n2Cc1ccccc1", "GI50": "> 100 µM (inactive)"}
{"compound": "O=C(Nc1ccn(C2CC(O)C(CO)O2)c(=O)n1)c1ccccc1 (stereo not given)", "GI50": "> 100 µM (inactive)"}

Query: Need GI50, item COc1c2c(cc3c1OCO3)C13C=CC(OC)CC1N(CC3)C2.[O-][Cl+3]([O-])([O-])O (stereo not given)
Reply: > 100 µM (inactive)

Query: Return reported GI50; argument: C/C(=N\NC(=S)N1CCC(N2CCCCC2)CC1)c1ccccn1
Reply: 4.12 µM (inactive)

Query: State the recorded GI50 for this entry: C[C@@H]1[C@@H](c2ccccc2)O[B-](c2ccccc2)(c2ccccc2)N1C
Reply: 52.1 µM (inactive)

Query: What value of GI50 has been recorded for this entry: COC(=O)/C(=C\c1ccc(N(CCC#N)CCC#N)cc1)NC(=O)c1cc([N+](=O)[O-])ccc1Cl
Reply: > 100 µM (inactive)

Query: Using the record for C/N=C/N(C)c1c2ccccc2nc2ccccc12 , report its GI50.
Reply: > 100 µM (inactive)

Query: Tell me the measured GI50 of COc1ccc2c(CCNS(=O)(=O)c3ccccc3)c(C(C)=O)[nH]c2c1[N+](=O)[O-] , please.
Reply: > 10 µM (inactive)

Query: GI50; subject: CS(=O)(=O)OCC(CCl)(CCl)CCl
Reply: > 100 µM (inactive)

Query: What value of GI50 has been recorded for this entry: COc1ccc(-c2cc(-c3ccccc3)c(C#N)c(=O)[nH]2)cc1
Reply: > 100 µM (inactive)

Query: Consider the compound CCOC(=O)C(=Cc1ccc(C(=O)OC)cc1)C(=O)OCC and give its measured GI50.
Reply: 1.71 µM (inactive)
